# measurement.notes: A quantitative high throughput screen for small molecules that induce DNA re-replication in MCF 10a normal breast cells. Also: nearly all actives have a fitted effect of over 50% in size. Also: potency is read from the fitted curve at half-maximal effect.
# recorded.conditions: MCF 10A DNA re-replication, Hoechst nuclear intensity, 48 h; series mostly up to 46.1 µM
# Description: H Molecular Libraries Probe Production Network [MLPCN] NIH Chemical Genomics Center [NCGC] Assay Provider: Melvin DePamphilis, NICHD, NIH Eukaryotic cells normally restrict genome duplication to once per cell division. […] To identify compounds that induce re-replication in normal cells, an image-based assay was used to measure DNA content of nuclei, as detected by the fluorescent DNA binding dye, Hoechst. […]
Hit rate of the full screen: of about 350,000 compounds, about 9,900 (2.8%) were called active. Inconclusive results (about 15%) are left out. Only a selection was taken, and actives are over-represented in it overall.
readout.kind: Potency

molecule=CCSc1nsc(NC(=O)Nc2cccc(C(C)=O)c2)n1 recorded_measurement="16.4 µM (active)"
molecule="COc1ccc(CCNC(=O)CCn2c(=O)c3ccccc3n(CC(=O)NCC3CCCO3)c2=O)cc1OC (configuration not stated)" recorded_measurement=inactive
molecule=Cc1ccc(CCNC(=O)c2ccc3nc4ccccc4c(=O)n3c2)cc1 recorded_measurement=inactive
molecule="Cc1cc2c(cc1C)NC1(C[C@H]3CCC(=O)N4CC[C@@H](C1)[C@@H]34)C(=NC(C)(C)CC(C)(C)C)N2 (some centres not stated)" recorded_measurement=inactive
molecule=Cc1ccc(S(=O)(=O)N(C)c2ccc(OCC(=O)OCc3ccc(C#N)cc3)cc2)cc1 recorded_measurement=inactive
molecule=COc1ccc(C(=O)Nc2ccccc2C(=O)NCc2ccco2)cc1 recorded_measurement=inactive

# next molecule below
GET /values?readout=Potency&item= Cc1cc(NC(=O)CSc2ncc(C(F)(F)F)cc2Cl)no1
inactive

====

# measurement.notes: A quantitative high throughput screen for small molecules that induce DNA re-replication in MCF 10a normal breast cells. Also: nearly all actives have a fitted effect of over 50% in size.
# recorded.conditions: MCF 10A DNA re-replication, Hoechst nuclear intensity, 48 h; series mostly up to 46.1 µM
Screen size: about 350,000 compounds; about 9,900 (2.8%) were called active. Another 15% or so got no clear call; they are omitted. Calls come from the whole dose curve; as a rule, active = well fitted activation curve with a large enough effect; inconclusive = small, poorly fitted or top-dose-only effect; inactive = no such curve, though single readings can be large or run the other way. This is one part of a sample in which actives are shown more often than they occur.
Classes to choose from: active, inactive

Solved cases (5 shown):
smiles_entry=COc1ccc(Nc2oc(-c3ccccc3Cl)nc2C#N)cc1 class_name=active
smiles_entry=COc1ccccc1NC(=O)CSc1nc2sc3c(c2c(=O)n1-c1ccccc1)CCN(C)C3 class_name=inactive
smiles_entry=C[C@@H](NC(=O)OC(C)(C)C)c1nnc(S(=O)(=O)Cc2ccccc2)o1 class_name=active
smiles_entry=COC(C[C@H](O)CC(=O)[C@@H](C)OCc1ccccc1)OC class_name=inactive
smiles_entry=CCOc1ccc(-n2c(SCC(=O)OC)nc3sc4c(c3c2=O)CCN(C)C4)cc1 class_name=inactive

Here is the next item to consider.
Hi, sorry to bother you, what did the test record for COc1ccccc1-c1nc(C#N)c(N2CCC(C(N)=O)CC2)o1 ?
inactive

====

# measurement.notes: A quantitative high throughput screen for small molecules that induce DNA re-replication in MCF 10a normal breast cells. Also: nearly all actives have a fitted effect of over 50% in size.
# recorded.conditions: MCF 10A DNA re-replication, Hoechst nuclear intensity, 48 h; series mostly up to 46.1 µM
Among all 350,000 compounds or so, about 9,900 (2.8%) were called active. About 15% were inconclusive and are not listed. Calls come from the whole dose curve; as a rule, active = well fitted activation curve with a large enough effect; inconclusive = small, poorly fitted or top-dose-only effect; inactive = no such curve, though single readings can be large or run the other way. The sample as a whole holds a higher share of actives than the screen did.
Classes to choose from: Y (active), N (inactive)

Solved cases (3 shown):
smiles_entry=CC(C)(C)OC(=O)C[C@@H]1C/C=C\C[C@H](CC(=O)N[C@@H](CO)Cc2ccccc2)C(=O)N[C@H](Cc2ccccc2)COC1=O class_name=N
smiles_entry=N#Cc1ccccc1S(=O)(=O)N1CCN(Cc2c(O)ccc3ccccc23)CC1 class_name=N
smiles_entry=CC(C)(C)OC(=O)C[C@@H]1C/C=C\C[C@@H](CC(=O)N(CCO)Cc2ccccc2)C(=O)N[C@H](Cc2ccccc2)COC1=O class_name=Y

Here is the next item to consider.
Hi, sorry to bother you, what did the test record for COc1ccc(CNc2c(CO)cnc3c2cnn3C)cc1 ?
Y
